Below is a list of entries, each paired with its recorded inhibition at 10 µM value.
SYSTEM TESTED: LOX (Mus musculus, UniProt P28301)
Construct: Full length LOX cDNA was then PCR cloned into pEGFP-N1 (Clonetech), or biosensor vector proGFP2-N1; expressed in transfected cells; host or cells: MDCK cells grown as cysts on Matrigel
Sequence (P28301 163-411): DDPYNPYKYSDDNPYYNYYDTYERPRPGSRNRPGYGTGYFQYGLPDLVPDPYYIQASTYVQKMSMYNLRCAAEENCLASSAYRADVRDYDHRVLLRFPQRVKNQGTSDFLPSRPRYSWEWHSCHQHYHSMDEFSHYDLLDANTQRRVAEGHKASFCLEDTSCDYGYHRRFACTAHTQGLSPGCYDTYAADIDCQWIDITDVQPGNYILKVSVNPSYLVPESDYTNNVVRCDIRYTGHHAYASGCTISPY
TEST SUMMARY: LOX activity in cysts assay (roGFP2 LOX biosensor in MDCK cysts)
Format: cell-based
ASSAY CONTEXT: 10 μM; MDCK cysts; DMSO = 0% inhibition, BAPN at 1 mM = 100% inhibition; inhibitors added 30 min prior to imaging; read-out: LOX biosensor inhibition (cyst) @ 10 μM

COMPOUND	inhibition at 10 µM, %
CCOc1ccc(N2C[C@H]3CN(CCCC#N)C[C@H]3C2)cc1 [Example 2]	65
N#CCCCN1C[C@@H]2CN(c3ccc(N4CCS(=O)(=O)CC4)cc3)C[C@@H]2C1 [Example 32]	100
O=C(NC1CCCCC1)N1C[C@@H]2CN(c3ccc(N4CCS(=O)(=O)CC4)cc3)C[C@@H]2C1 [Example 9]	100
CCOc1ccc(N2C[C@H]3CN(C(=O)Oc4ccc([N+](=O)[O-])cc4)C[C@H]3C2)cc1 [Example 18]	97
C[C@@]12CN(C(=O)NCCO)C[C@]1(C)CN(c1ccc(N3CCS(=O)(=O)CC3)cc1)C2 [Example 30]	59
C[C@@]12CN(C(=O)NCCO)C[C@]1(C)CN(c1ccc(N3CCN(S(C)(=O)=O)CC3)cc1)C2 [Example 28]	94
CCOc1ccc(N2C[C@H]3CN(C(=O)N4CCC(C#N)CC4)C[C@H]3C2)cc1 [Example 42]	72
CCOc1ccc(N2C[C@H]3CN(C(=O)N4CCOCC4)C[C@H]3C2)cc1 [Example 37]	100
